System: M. tuberculosis standard strain Mtb H37Rv
TEST NAME: MIC determination against mycobacteria (resazurin, Middlebrook 7H9)
Format: cell-based, Mycobacterium tuberculosis
TEST CONTEXT: Mycobacterium tuberculosis, H37RV, read-out: Mtb H37Rv MIC (B)
Reported log10(MIC) values for a set of compounds
Heads up: the numbers are on a log10 scale; they represent MIC in µM.

Task: Please report the measured log10(MIC) for Cl.NC[C@H]1OB2O[C@H](CO)COc3ccc(F)c1c32 [Example 13, Hydrochloride] tested on M. tuberculosis standard strain Mtb H37Rv.
Result: -0.26

Kindly consider the entry below.
Task: System M. tuberculosis standard strain Mtb H37Rv. Read-out log10(MIC). Item CC1(C)COc2ccc(Cl)c3c2B(OC3CN)O1.Cl (centres unmarked) [Example 11, Hydrochloride] . Report value.
Result: -0.57

====

Test system: HepG2 cells
TEST CONTEXT: 48 h
READOUT NAME: HepG2 cell 48 h Tox50 (A)

Some compounds with known HepG2 cell 48 h Tox50 (A) results, for comparison:
Task: Determine from records and report HepG2 cell 48 h Tox50 (A) for Cl.NCC1OB2OCCOc3ccc(Cl)c1c32 (stereo not shown)
Result: >50 µM

Task: For the compound CCOc1ccc(Cl)c2c1B(O)O[C@@H]2CN [Example C6-Cl, reference compound] , give its reported HepG2 cell 48 h Tox50 (A).
Result: 36.3 µM

Task: Return HepG2 cell 48 h Tox50 (A) for the following compound: Cl.NC[C@H]1OB2O[C@H](CO)COc3ccc(F)c1c32
Result: >50 µM

Task: Please list HepG2 cell 48 h Tox50 (A) recorded for the compound Cl.NC[C@H]1OB2OCCOc3ccc(Cl)c1c32
Result: >1000 µM

Task: Supply recorded HepG2 cell 48 h Tox50 (A) for CCOc1cccc2c1B(O)O[C@@H]2CN [Example C5-H, reference compound] here.
Result: 1.8 µM

***
Task: For the compound CC1(C)COc2ccc(Cl)c3c2B(OC3CN)O1.Cl (stereo not shown) , report HepG2 cell 48 h Tox50 (A).
Result: >50 µM

Task: For CCOc1ccc(Br)c2c1B(O)O[C@@H]2CN [Example C4-Br, reference compound] , write its HepG2 cell 48 h Tox50 (A).
Result: 32 µM

====

Test system: HepG2 cells
TEST CONTEXT: 48 h
READOUT NAME: HepG2 cell 48 h Tox50 (A)

Below, each entry is followed by its recorded HepG2 cell 48 h Tox50 (A) result.
Task: Output measured HepG2 cell 48 h Tox50 (A) for this item: NCCOc1cccc2c1B(O)OC2 [Example C3-H, reference compound]
Result: >50 µM

Task: Give the reported value of HepG2 cell 48 h Tox50 (A) for this record: CC1COc2ccc(Cl)c3c2B(O1)OC3CN.Cl (stereo not drawn)
Result: >50 µM

***
Task: Determine its reported HepG2 cell 48 h Tox50 (A): Cl.NC[C@H]1OB2OCCOc3ccc(Br)c1c32
Result: 292.4 µM

Task: Quick one: give measured HepG2 cell 48 h Tox50 (A) for CC1COc2ccc(Br)c3c2B(O1)OC3CN.Cl (stereo not drawn)
Result: >50 µM

Task: Read off the recorded HepG2 cell 48 h Tox50 (A) for CC1(C)COc2ccc(Br)c3c2B(OC3CN)O1.Cl (stereo not drawn)
Result: >50 µM

Task: Quote HepG2 cell 48 h Tox50 (A) reported for Cl.NCC1OB2OCCOc3ccc(Br)c1c32 (stereo not drawn) please.
Result: >50 µM

// provenance: patent US10526352B2
